# TESTED_ON: T1, human ROR1 (full-length, on the cell surface) (human, UniProt Q01973 30-937)
# T1 construct: whole, on cells; the tumour cell lines carry their own ROR1; also called Ba/F3-ROR1 cells; Jeko-1
# PROTOCOL: flow cytometry, Ba/F3-ROR1 cells
Assignment: determine reported pEC50 for the given binders.
Answers are plain numbers, as −log10 of the molar value.

Below, each entry is followed by its recorded pEC50 result.
>>> measured_number("19F6-Hu23 (antibody, human IgG1, kappa, V domains shown, humanized, human IgG1 / kappa) VH: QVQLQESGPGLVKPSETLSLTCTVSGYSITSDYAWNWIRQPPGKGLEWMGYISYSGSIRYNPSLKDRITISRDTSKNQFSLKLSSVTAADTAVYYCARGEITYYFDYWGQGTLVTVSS VL: DIQMTQSPSSLSASVGDRVTITCRASTDIDDDMNWYQQKPGKAPKLLIYEGNTLQSGVPSRFSGSGYGTDFTLTISSLQPEDFATYYCLQSNDLPLTFGQGTKLEIKR")
9.46
>>> measured_number("19F6-Hu35V9 (antibody, human IgG1, kappa, V domains shown, humanized, human IgG1 / kappa) VH: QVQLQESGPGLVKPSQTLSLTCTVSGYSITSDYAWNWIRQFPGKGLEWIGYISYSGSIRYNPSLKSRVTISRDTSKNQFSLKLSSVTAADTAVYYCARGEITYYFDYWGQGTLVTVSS VL: ETTLTQSPAFMSATPGDKVTISCKASTSIDDDMNWYQQKPGKPPKLIISEGNTLRPGIPPRFSSSGYGTDFTFTIRKIESEDAADYYCLQSNDLPLTFGQGTKLEIKR")
9.68
>>> measured_number("19F6-Hu13 (antibody, human IgG1, kappa, V domains shown, humanized, human IgG1 / kappa) VH: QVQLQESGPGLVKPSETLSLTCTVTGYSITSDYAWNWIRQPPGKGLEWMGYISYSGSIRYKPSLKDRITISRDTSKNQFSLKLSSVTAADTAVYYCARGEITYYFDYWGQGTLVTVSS VL: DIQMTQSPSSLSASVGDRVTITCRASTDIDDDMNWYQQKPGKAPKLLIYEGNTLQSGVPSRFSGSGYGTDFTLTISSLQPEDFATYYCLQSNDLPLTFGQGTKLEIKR")
9.54
>>> measured_number("19F6-Hu12 (antibody, human IgG1, kappa, V domains shown, humanized, human IgG1 / kappa) VH: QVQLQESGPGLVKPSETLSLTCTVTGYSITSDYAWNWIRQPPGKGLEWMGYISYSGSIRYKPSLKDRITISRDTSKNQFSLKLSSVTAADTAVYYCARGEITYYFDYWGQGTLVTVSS VL: DIQMTQSPSSLSASVGDRVTITCITTTDIDDDMNWYQQKPGKAPKLLISEGNTLQSGVPSRFSGSGYGTDFTLTISSLQPEDFATYYCLQSNDLPLTFGQGTKLEIKR")
9.37
>>> measured_number("19F6-Hu22 (antibody, human IgG1, kappa, V domains shown, humanized, human IgG1 / kappa) VH: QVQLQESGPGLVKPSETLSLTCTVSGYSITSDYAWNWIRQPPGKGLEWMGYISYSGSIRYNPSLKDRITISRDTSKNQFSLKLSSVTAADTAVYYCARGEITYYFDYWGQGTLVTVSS VL: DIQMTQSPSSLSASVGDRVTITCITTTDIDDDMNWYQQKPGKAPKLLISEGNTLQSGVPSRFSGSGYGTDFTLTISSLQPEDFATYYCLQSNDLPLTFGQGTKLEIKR")
9.52

Here are 5 binders. What values of pEC50 were reported for them?
1. 19F6-Hu35 (antibody, human IgG1, kappa, V domains shown, humanized, human IgG1 / kappa) VH: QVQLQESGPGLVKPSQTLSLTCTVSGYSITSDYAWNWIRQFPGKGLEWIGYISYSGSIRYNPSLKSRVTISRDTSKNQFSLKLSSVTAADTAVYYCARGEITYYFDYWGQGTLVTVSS VL: ETTLTQSPAFMSATPGDKVTISCKASTDIDDDMNWYQQKPGEPPKLIISEGNTLRPGIPPRFSSSGYGTDFTFTINNIESEDAADYYCLQSNDLPLTFGQGTKLEIKR
2. 19F6-Hu35V3 (antibody, human IgG1, kappa, V domains shown, humanized, human IgG1 / kappa) VH: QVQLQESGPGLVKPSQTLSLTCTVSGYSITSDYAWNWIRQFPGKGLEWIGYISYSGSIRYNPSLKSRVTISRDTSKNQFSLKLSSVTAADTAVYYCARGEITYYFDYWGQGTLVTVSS VL: ETTLTQSPAFMSATPGDKVTISCKASTSIDDDMNWYQQKPGKPPKLIISEGNTLRPGIPPRFSSSGYGTDFTFTINKIESEDAATYYCLQSNDLPLTFGQGTKLEIKR
3. 19F6-Hu21 (antibody, human IgG1, kappa, V domains shown, humanized, human IgG1 / kappa) VH: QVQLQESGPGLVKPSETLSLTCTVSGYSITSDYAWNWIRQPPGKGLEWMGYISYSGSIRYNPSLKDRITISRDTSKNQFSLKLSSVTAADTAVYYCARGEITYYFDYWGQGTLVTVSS VL: DIQMTQSPSSLSASVGDRVTITCITTTDIDDDMNWYQQKPGKAPKLLISEGNTLRPGVPSRFSGSGYGTDFTLTISSLQPEDFATYYCLQSNDLPLTFGQGTKLEIKR
4. 19F6-Hu35V2 (antibody, human IgG1, kappa, V domains shown, humanized, human IgG1 / kappa) VH: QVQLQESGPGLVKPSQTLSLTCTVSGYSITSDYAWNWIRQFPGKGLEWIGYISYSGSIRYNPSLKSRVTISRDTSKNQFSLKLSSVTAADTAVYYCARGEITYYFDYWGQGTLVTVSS VL: ETTLTQSPAFMSATPGDKVTISCKASTDIDSDMNWYQQKPGEPPKLIISEGNTLRPGIPPRFSSSGYGTDFTFTINKIKSEDAATYYCLQSNDLPLTFGQGTKLEIKR
5. 19F6-Hu33 (antibody, human IgG1, kappa, V domains shown, humanized, human IgG1 / kappa) VH: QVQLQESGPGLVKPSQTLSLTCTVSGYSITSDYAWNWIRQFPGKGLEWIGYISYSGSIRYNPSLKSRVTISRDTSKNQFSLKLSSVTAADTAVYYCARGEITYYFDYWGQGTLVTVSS VL: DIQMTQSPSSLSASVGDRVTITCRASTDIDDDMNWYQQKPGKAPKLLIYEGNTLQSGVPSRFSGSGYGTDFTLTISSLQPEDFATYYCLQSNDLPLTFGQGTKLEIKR

[out]
9.42
9.74
9.44
9.72
9.46

meta.source: patent US20240018237A1
